Provide the recorded inhibition for the entries that follow.
SYSTEM_TESTED: Eukaryotic translation initiation factor 4H (Homo sapiens)
ASSAY_TEXT: human eIF4H binding inhibitors, primary screen, translation initiation inhibitor project, biochemical, uHTS, fluorescence polarization (AID 2012);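 note: calls also rest on retests at 20 µM and on dose response follow-up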
MEASUREMENT_SETUP: eIF4H fluorescence polarization binding assay; at 35 µM; stronger effect = higher value
Screen size: about 290,000 compounds; about 2,700 (0.93%) were called active. This is one part of a sample in which actives are shown more often than they occur.
Answers are plain numbers, in %.

# map each compound to its inhibition
1. CCC(=O)Nc1ccc(C(=O)NNC(=O)c2ccc(Cl)cc2)cc1
2. CCc1cccc(C)c1NC(=O)CSc1nnc(-c2ccco2)n1N
3. O=C(Cc1ccccc1)n1nc(-c2ccccc2)nc1NCc1ccco1
4. CN(C(=O)CCNC(=O)Cn1ccc2ccccc2c1=O)c1ccc(Br)cc1
5. Cc1nc2nc(SCC(=O)NCc3ccco3)nn2c(C)c1Cc1ccccc1
6. CS(=O)(=O)Nc1ccccc1N=C(c1ccccc1)c1ccccc1

Ans:
1. 8
2. 6.1
3. -6.8
4. 1.5
5. 3.5
6. 1.1
